Target: doppel (Prnd) recombinant protein immobilized on the SPR sensor chip
Sequence (Q9UKY0 26-152): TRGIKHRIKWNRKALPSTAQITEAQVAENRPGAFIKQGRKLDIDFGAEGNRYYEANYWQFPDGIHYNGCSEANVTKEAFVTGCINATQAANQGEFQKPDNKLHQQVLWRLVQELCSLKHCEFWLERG
Assay: SPR, BIAcore T100, recombinant protein immobilized on chip
Recorded Kd values for a group of binders are listed next.
Answer in nM, number only, no unit symbol.

Q. // lookup Kd for murine monoclonal antibody produced by hybridoma cell line clone 2B6 (antibody, V domains shown, also called hPrnd #2B6; KCLRF-BP-00490) VH: QVQLQQSGAELVRPGVSVKLSCKFSGFTFTDYAMHWVRQSHAKSLAWIGVISSYYGDASYNQKFTGKATMTVDKSSSTAYMELARLTSEDSAIYYCARRLRGAMDYWGQGTSVTVSS VL: DIVMTQSQKFMSTSVGDRVSVTCKASQNVDANVAWYQQKPGQSPKALIYSASYRYSGVPYRFTGSGSGTDFTLTISNVQSADLAEYFCQQYNSYPFTFGSGTKLELK
A. 0.292

Q. // lookup Kd for murine monoclonal antibody produced by hybridoma cell line clone 2C10 (antibody, V domains shown, also called hPrnd #2C10; KCLRF-BP-00491) VH: EVQLQESGPSLVKPSQTLSLTCSVTGDSITSGYWNWIRKFPGNKLEYMGYIRYSGSAYYNPSLKSRISITRDTSKNQYYLQLNSVTTEDTATYYCARYPYYGSYWYFDVWGAGTTVTVSS VL: DVQITQSPSYLAASPGETITLNCRASKSISKYLAWYQEKPGKTNKLLIYSGSTLQSGIPSRFSGSGSGSDFTLTISSLEPEDFAMYYCQQHSEYPWTFGGGTKLEIK
A. 8.76

Continuing:
Q. // lookup Kd for Human monoclonal antibody E9 (antibody, human IgG1, kappa, V domains shown) VH: QVQLVQSGAEVKKPGSSVKVSCKASGGTFSSYYMHWVRQAPGQGLEWMGRISPGGGGTIYAQKFQGRVTITADESTSTAYMELSSLRSEDTAVYYCARAQSEGLSYYFDVWGQGTLVTVSS VL: DIQMTQSPSSLSASVGDRVTITCRASQSIRNYLNWYQQKPGKAPKLLIYAASNLQSGVPSRFSGSGSGTDFTLTISSLQPEDFATYYCQQSSSFPLTFGQGTKVEIKR
A. 4.41
